# Test system: L-929
# assay details: Cell proliferation assay (MTT, 5 days)
# Assay type: cell-based, murine
# test context: L-929 murine fibroblast; read-out: Antiproliferative activity IC50
# Method: Biological evaluation of the compounds […] serial dilutions of the test compound were given to 120 µL of suspended cells (50.000/mL) in wells of 96-well plates. After 5 days of incubation growth inhibition (IC50) was determined using an MTT assay.9 Table S1:Medium conditions for different cell types. Cell type Medium Additives L-929 (DSMZ ACC 2) DME medium (high glucose) (Gibco) 10% fetal calf serum (Gibco) SKOV-3 DSMZ ATCC HTB Mc Coys-Medium (Gibco) 10% fetal calf serum (Gibco) […]
pIC50: −log10 of the molar value.
endpoint label: pIC50

compound	result value
C/C=C/[C@@H]1O[C@H]([C@H](N)/C=C/C=C(\C)C[C@@H](C)/C=C(C)\C=C\[C@H](O)CC(N)CC(=O)OC)C[C@@H](O)[C@@H]1C (some centres unmarked) [Compound 18]	5.48
C/C=C/[C@@H]1O[C@H]([C@@H](N)/C=C/C=C(\C)C[C@@H](C)/C=C(C)\C=C\[C@H](O)CC(N)CC(=O)OC)C[C@@H](O)[C@@H]1C (some centres unmarked) [Compound 19]	5.88
